- experimentalTarget: T1, cell-expressed CD40 (UniProt P25942 21-277, limits assumed)
- T1 construct: whole, on cells; also called CD40 on HEK-Blue-CD40L cells; cell surface CD40
- T1 sequence (P25942 21-277 limits assumed): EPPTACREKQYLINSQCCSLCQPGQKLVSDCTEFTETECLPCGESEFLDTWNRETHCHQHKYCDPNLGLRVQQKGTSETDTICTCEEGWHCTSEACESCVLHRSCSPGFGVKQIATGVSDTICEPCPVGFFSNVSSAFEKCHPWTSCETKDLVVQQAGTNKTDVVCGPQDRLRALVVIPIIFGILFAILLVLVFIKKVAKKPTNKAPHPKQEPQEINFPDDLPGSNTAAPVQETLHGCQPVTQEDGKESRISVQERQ
- methodNotes: cell binding on HEK-Blue-CD40L cells, Alexa-Fluor-488 anti-human IgG, high content imaging
Item-by-item account of EC50
Respond with the bare value in ng/mL.

| binder | unitDescriptor | EC50 |
| --- | --- | --- |
| MAB-16-0267 (antibody, V domains shown, humanized anti-CD40 IgG1-LALA antibody of the invention) VH: EVQLEESGGDLVQPGASLRLSCAASGFDFNSNAMSWVRQAPGKGLEWVASIYAGGSGSTYYASWAKGRFTISKDTSKTTLYLQMNSLRAEDTATYFCARGITRLPLWGQGTLVTVSS VL: DIQMTQSPSSLSASVGDRVTITCQASQSISSYLAWYQQKPGQAPKLLIYDASKLASGVPSRFSGSGSGTDFTLTISSLQPEDFATYYCQGTYYGSTTISAFGQGTKVVIK | ng/mL | 3.4 |
| MAB-16-0406 (antibody, V domains shown, humanized anti-CD40 IgG1-LALA antibody of the invention) VH: EVQLEESGGGLVQPGGSLRLSCAASGIDFSRYYYMCWVRQAPGKGPEWVACYSNGDGSTYYASWAKGRFTISKDTSKTTLYLQMNSLRAEDTATYFCARGADYSAGAAAFNLWGQGTLVTVSS VL: DIQMTQSPSSLSASVGDRVTITCQASESIGNALVWYQQKPGQAPKLLIYRASILASGVPSRFSGSGSGTDFTLTISSLQPEDFATYYCQDYYGSSTEYNTFGQGTKVVIK | ng/mL | 6.6 |
| MAB-16-0451 (antibody, V domains shown, Humanized IgG1-LALA (L234A, L235A in the human IgG1 Fc, EU numbering)) VH: EVQLEESGGGLVQPGGSLRLSCAASGFDFSSNTMCWVRQAPGKGLEWVACIYAGSSGSTYYASWAKGRFTISKDISKTTLYLQMNSLRAEDTATYFCARGLSRFSLWGQGTLVTVSS VL: DIVMTQSPSSLSASVGDRVTITCQASQSISNYLAWYQQKPGQAPKLLIYDASKLASGVPSRFSGSGSGTDFTLTISSLQPEDFATYYCQGGDYYGSSYVVAFGGGTKVVIK | ng/mL | 8.9 |
| MAB-16-0400 (antibody, V domains shown, humanized anti-CD40 IgG1-LALA antibody of the invention) VH: EVQLEESGGGLVQPGGSLRLSCAASGIDFSRYFYMCWVRQAPGKGLEWVACIGPGVSGDTYYASWAKGRFTISGDTSKTTLYLQMNSLRAEDTATYFCARGVDYTYGDAGAAFNLWGQGTLVTVSS VL: DIVMTQSPSSLSASVGDRVTITCQASQSISSYLAWYQQKPGQAPKLLIYRASILASGVPSRFSGSGSGTDFTLTISSLQPEDFATYYCQTYYSSRTYSYGSPNAFGQGTKVVIK | ng/mL | 5.8 |

Please turn your attention to the following entry.
Enquiry: Tell me its EC50 given MAB-16-0464 (antibody, V domains shown, Humanized IgG1-LALA (L234A, L235A in the human IgG1 Fc, EU numbering)) VH: EVQLEESGGGLVQPGGSLRLSCAASGFDFSSNAMSWVRQAPGKGLEWVGTIYAGSNGNTDYASWAKGRFTISKDTSKTTLYLQMNSLRAEDTATYFCARGASYFTLWGQGTLVTVSS VL: DIVMTQSPSSLSASVGDRVTITCQASESVVSNNRLAWYQQKPGQAPKLLIYLASTLPSGVPSRFSGSGSGTDFTLTISSLQPEDFATYYCAGYKSSSTDGTAFGQGTKVVIK as the entry.
Return: 3

Attribution: patent US20240010741A1
